Values were extracted from patent US20220177596A1.

- ASSAY TARGET: T1, human-CD40 monomer (human, UniProt P25942 21-193, limits assumed)
- T1 construct: also called hCD40-monomer; human-CD40-monomer protein
- T1 sequence (P25942 21-193 limits assumed): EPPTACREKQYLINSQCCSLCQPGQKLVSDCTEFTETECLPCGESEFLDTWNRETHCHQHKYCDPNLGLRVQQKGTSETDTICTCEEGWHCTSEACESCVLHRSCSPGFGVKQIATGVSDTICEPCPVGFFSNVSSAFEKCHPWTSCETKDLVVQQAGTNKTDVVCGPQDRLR
- TEST DETAILS: SPR 2 pt screen, Ab on protein A
The following binders are shown together with reported kon values.

| BINDER | kon (M⁻¹ s⁻¹) |
| --- | --- |
| humanized Y1238 hz9 (hz-HC2 / hz-LC4), IgG1.3f (antibody, V domains shown, IgG1.3f heavy constant, common CL; expression supernatant; also called Sup 9) VH: QVQLVQSGAEVKKPGASVKVSCKASGYAFTNYLIEWVRQAPGQGLEWMGVINPGSGGTNYNEKFKGRVTMTADTSISTAYMELSRLRSDDTAVYYCARSQLGRRFDYWGQGTLVTVSS VL: DIQMTQSPSSLSASVGDRVTITCKASQDVRTGVAWYQQKPGQSPKLLIYSASYRNTGVPSRFSGSRSGTDFTFTISSLQAEDIAVYYCQQHYSPPYTFGGGTKVEIK | 47000 |
| humanized Y1238 hz47 (hz-HC10 / hz-LC2), IgG1.3f (antibody, V domains shown, IgG1.3f heavy constant, common CL; expression supernatant; also called Sup 47) VH: QVQLVQSGAEVKKPGASVKVSCKASGYAFTNYLIEWVRQRPGQGLEWMGVINPGSGGTNYNEKFKGRVTMTRDKSISTAYMELSRLRSDDTAVYYCARSQLGRRFDYWGQGTLVTVSS VL: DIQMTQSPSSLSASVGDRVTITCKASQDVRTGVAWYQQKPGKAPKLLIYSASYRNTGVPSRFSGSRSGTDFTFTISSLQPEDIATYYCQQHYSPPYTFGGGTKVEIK | 36000 |
| humanized Y1238 hz51 (hz-HC11 / hz-LC1), IgG1.3f (antibody, V domains shown, IgG1.3f heavy constant, common CL; expression supernatant; also called Sup 51) VH: QVQLVQSGAEVKKPGASVKVSCKASGYAFTNYLIEWVRQRPGQGLEWMGVINPGSGGTNYNEKFKGRVTMTRDKSSSTAYMELSRLRSDDTAVYFCARSQLGRRFDYWGQGTLVTVSS VL: DIQMTQSPSSLSASVGDRVTITCKASQDVRTGVAWYQQKPGKAPKLLIYSASYRNTGVPSRFSGSGSGTDFTFTISSLQPEDIATYYCQQHYSPPYTFGGGTKVEIK | 37000 |
